Here, each record is paired with measured OD value data.
assayed_target: T1, Biotin-huCGRPaSA (human, not fully specified; biotin (position not given))
T1 construct: exact construct ('aSA') not explained; also called Biotin CGRPaSA; full-length (1-37) CGRP
T1 peptide: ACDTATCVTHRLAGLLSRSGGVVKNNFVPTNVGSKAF
measurement_protocol: ELISA, transfection supernatant, biotin-CGRP on streptavidin
Procedure: Streptavidin was diluted to 0.5 μg/mL by using PBS (Hyclone) and added into a plate at 100 μL/well. The plate was incubated in a thermostat incubator at 37° C. for 90 min and then washed. […] Finally, a 2 M hydrochloric acid solution was added at 100 μL/well to stop the reaction while avoiding bubbles, and the plates were read on a microplate reader within 10 min (the detection wavelength was 450 nm; the reference wavelength was 620 nm).
readout_name: OD value (OD)

>>> reported("C276 (antibody, V domains shown, 3E5-HC + 3H10-LC2; chimeric, human constant regions) VH: EVQLQQSGPELVKPGASVKISCKTSGYTFTDYNMHWVKQSHGKSLEWIGYISPYNGGTAYNQKFKFKSTLTVDTSSSTAYMELRSLTSEDSAVYYCAREGLGGYWGQGTTLTVSS VL: DIVLTQSPDSLAVSLGQRATISCKASQNIDYGGYSYMNWYQQKPGQPPKVLIYSVFNLESGIPARFSGSGSGTDFTLTIHPVEEEDAATYYCQQSNEAPYTFGGGTKLEIR")
3.01
>>> reported("C79 (antibody, V domains shown, 1F5-HC + 2B8-LC2; chimeric, human constant regions) VH: EVQLQQSGPELVKPGASVKISCKTSGYTFIDFNMHWVKQSHGKSLEWIGYIYPYNGDVVYNQNFTNKATLTVDSSSSTAYMELRRVTSEDSAIYYCAREGLGGYWGQGTTLTVSS VL: DVVLTQSPTSLAVSLGQRATISCQASQNIDGNTYMNWYQQKPGQPPKVLIYSIFNLESGIPARFSGSGSGTHFTLTIHPVEEEDAATYYCQQSNDYPYTFGGGTKLEIK")
3.03
>>> reported("C255 (antibody, V domains shown, 3E5-HC + 1A2-LC2; chimeric, human constant regions) VH: EVQLQQSGPELVKPGASVKISCKTSGYTFTDYNMHWVKQSHGKSLEWIGYISPYNGGTAYNQKFKFKSTLTVDTSSSTAYMELRSLTSEDSAVYYCAREGLGGYWGQGTTLTVSS VL: DIVLTQSPASLAVSLGQRATISCKASQNIDYDGYAYLNWYQQKPGQPPKVLIYSVFNLESGIPARFSGSGSGTDFTLNIHPVEEEDAATYYCQQSNEFPYTFGGGTKLEVK")
3.11
